biological target: Collagenase 3 (Homo sapiens) (UniProt P45452); test: inhibition of MMP13 collagenase activity – biochemical, FRET peptide cleavage, primary screen (AID 570); settings: MMP-13 fTHP FRET cleavage, Mca fluorescence; at 4 µM; stronger effect = higher value;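 further: 0% = DMSO wells and 100% = wells with reference MMP-13 inhibitor after basal subtraction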
Screen size: about 65,000 compounds; about 45 (0.07%) were called active. What follows is part of a selection rich in actives, with near analogues and random picks from the rest.
parameter: inhibition (%)
The response must be a number in % with no trailing unit.

// recorded inhibition for COc1ccc(O)c(C(=O)c2cnc3onc(C(C)C)c3c2)c1 : 8.5

// recorded inhibition for CN(C)/C=C/c1c(C#N)c(=O)ncn1Cc1ccccc1 : 2.5

// recorded inhibition for COCCNCCOCCOc1cccc(OC)c1 : -0.9

// recorded inhibition for COc1ncnc2c1N=C1CC(C)(C)CC(N)=C1S2 : 1.4

// recorded inhibition for Cc1[nH]c2ccccc2c1C(=O)CSCC(=O)O : -0.3

// recorded inhibition for Cc1cccc(-n2c(O)c(C=Nc3ccccc3N)c(=O)[nH]c2=O)c1 : -15.8

// recorded inhibition for COC(=O)c1ccc(S(=O)(=O)c2ccc(C(=O)OC)s2)s1 : -1.3

// recorded inhibition for CCOC(=O)C1=C(C)NC(C)=C(C(=O)OCC)C1c1ccccn1 : -0.7

// recorded inhibition for CCN1C(=O)/C(=C\N2CCN(c3ccccc3)CC2)SC1=S : 3.4

// recorded inhibition for COc1cc2ccccc2cc1C(=O)Nc1ccc(S(=O)(=O)Nc2cc(C)on2)cc1 : -1.9

// recorded inhibition for COc1cccc(-n2cc3c(c2-c2ccccc2)c(=O)n(C)c(=O)n3C)c1 : -1.8

* * *

target: Collagenase 3 (Homo sapiens) (UniProt P45452); test: inhibition of MMP13 collagenase activity – biochemical, FRET peptide cleavage, primary screen (AID 570); settings: MMP-13 fTHP FRET cleavage, Mca fluorescence; at 4 µM; stronger effect = higher value
In all, about 65,000 compounds went through this assay and about 45 (0.07%) were called active. The sample as a whole holds a higher share of actives than the screen did.
Assign inhibition to each entry below.
The response must be a number in % with no trailing unit.

// recorded inhibition for CCCn1c(SCC(=O)N2CCc3ccccc32)nnc1-c1ccncc1 : -0.9

// recorded inhibition for CCOC(=O)CSc1nc2c(sc(=S)n2CCc2ccccc2)c(=O)n1Cc1ccco1 : 2.4

// recorded inhibition for Cc1ccc(C(=O)CSc2nnc(Cn3nnc4ccccc43)n2C)cc1 : 7.7

// recorded inhibition for Cc1cc(Nc2cccc(C)c2C)n2ncnc2n1 : 6.6

// recorded inhibition for Cc1ccc(-n2nc3cc(Cl)c(NC(=O)c4ccco4)cc3n2)cc1 : -66.9

// recorded inhibition for CN(c1ccccc1)c1ccc(/C=c2\s/c(=C(/C#N)C(=O)C(C)(C)C)n(Cc3ccco3)c2=O)cc1 : 15.4

// recorded inhibition for C=CCn1cnc2scc(-c3ccccc3)c2c1=O : 0.5

// recorded inhibition for Cc1ccc(S(=O)(=O)c2c(N)n(C)c3nc4ccccc4nc23)cc1 : -244

// recorded inhibition for O=C(CSc1nnc(-c2c[nH]c3ccccc23)n1-c1ccc(F)cc1)NCc1ccco1 : 6.1

// recorded inhibition for CCC(C)NC(=O)N[C@@H](CCSC)C(=O)O (stereo partly drawn) : 1.5

// recorded inhibition for COCCCNC(=O)C1CC(=O)N(c2ccc(C)cc2)C1 (stereo not drawn) : -1.3

// recorded inhibition for O=c1nc2s/c(=C\c3ccco3)c(=O)n2nc1Cc1ccccc1 : 0.1

// recorded inhibition for CCC1CCCCN1C(=O)Nc1cccc(NC(=O)N2CCCCC2CC)c1 (stereo not drawn) : -2.3

// recorded inhibition for OC(COc1cccc2ccccc12)CN1CCN(c2ccccn2)CC1 (stereo not drawn) : 0.9

// recorded inhibition for CCC(C)(C)NC(=O)C(c1cccn1C)N(Cc1ccc(C)cc1)C(=O)Cn1nnc2ccccc21 (stereo not drawn) : 2.1

// recorded inhibition for Cc1cc(C)nc(N2C(=O)CC(Cc3ccccc3)C2=O)n1 (stereo not drawn) : 2.4

// recorded inhibition for COC(=O)c1ccc(CSc2nc3ccccc3c(=O)n2-c2cccc(OC)c2)o1 : -1.5

// recorded inhibition for COc1ccccc1N1CC(O)=C(c2nc3ccccc3s2)C1=N : -5.8

// recorded inhibition for Cc1cc(C(F)(F)F)n2ncc(-c3ccccc3)c2n1 : 3.8

// recorded inhibition for O=C(O)C1CCN(S(=O)(=O)N2CCOCC2)CC1 : -0.5

// recorded inhibition for O=C(Nc1ccc(Cl)cn1)c1cnn2cccnc12 : -1.1

// recorded inhibition for CC(C)(C)c1ccc(C(=O)CSc2ncn[nH]2)cc1 : 1.3

// recorded inhibition for CC(NC(=O)c1ccco1)C(=O)Nc1nc(-c2ccccn2)cs1 (stereo not drawn) : 1.6

* * *

Assign inhibition to each entry below.
target: Collagenase 3 (Homo sapiens); assay: inhibition of MMP13 collagenase activity – biochemical, FRET peptide cleavage, primary screen (AID 570); conditions: MMP-13 fTHP FRET cleavage, Mca fluorescence; at 4 µM; stronger effect = higher value;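 further: 0% = DMSO wells and 100% = wells with reference MMP-13 inhibitor after basal subtraction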
Out of some 65,000 compounds screened, about 45 (0.07%) were called active. For the sample, actives were picked, then their nearest neighbours and some compounds at random.
The response must be a number in % with no trailing unit.

// recorded inhibition for O=C(C1CCN(S(=O)(=O)c2cccs2)CC1)N1CCCCCC1 : 6.3

// recorded inhibition for CCOC(=O)C(CCOc1cccc(CC)c1)C(=O)OCC : 4.3

// recorded inhibition for CCOC(=O)n1c(SCC(=O)N(CC)CC)nc2ccccc21 : -1.9

// recorded inhibition for OCc1n[nH]c(CO)n1 : -2.9

// recorded inhibition for CN1CCN(c2cc(=O)n(-c3ccc(Cl)cc3)c(=O)[nH]2)CC1 : 0.4

// recorded inhibition for COc1ccc(S(=O)(=O)N2CCCCC2)cc1Br : 3.3

* * *

Assign inhibition to each entry below.
molecular target: Collagenase 3 (Homo sapiens) (UniProt P45452); assay: inhibition of MMP13 collagenase activity – biochemical, FRET peptide cleavage, primary screen (AID 570); conditions: MMP-13 fTHP FRET cleavage, Mca fluorescence; at 4 µM; stronger effect = higher value;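 further: 0% = DMSO wells and 100% = wells with reference MMP-13 inhibitor after basal subtraction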
About 45 (0.07%) of roughly 65,000 compounds were called active. This excerpt belongs to a sample that is enriched for actives.
The response must be a number in % with no trailing unit.

// recorded inhibition for Cc1ccc(Cc2cncc(O)c2)cc1S(=O)(=O)O : 1.3

// recorded inhibition for COc1ccc(CN2CN(C(C)C)CSC2=S)cc1 : 1

// recorded inhibition for COc1ccc(-n2nnc3c(=O)n(CC(=O)OCc4ccccc4)cnc32)cc1 : 1.8

// recorded inhibition for Cc1ccc(NC(=O)Cn2nc(C)c3ccccc3c2=O)c(C)c1 : 0.6

// recorded inhibition for COc1ccc(CC(=O)c2ccc(O)cc2O)cc1OC : 2

// recorded inhibition for O=C(NCCN1C(=O)C2C3C=CC(C3)C2C1=O)Nc1ccccn1 (stereo unspecified) : 7.3

// recorded inhibition for CCN1CCN(Cc2nc3c(c(=O)n(C)c(=O)n3C)n2CC(=O)c2ccccc2)CC1 : -8.7

// recorded inhibition for COc1cc(Cl)c(S(=O)(=O)n2cnc(C)c2)cc1Cl : -1

// recorded inhibition for Cc1ccc(-c2noc(CSc3nnc(-c4ccccc4)n3C)n2)cc1 : 7.2

// recorded inhibition for CC1C=CCC2C(=O)N(c3cccc(C(=O)N4CCCCCC4)c3)C(=O)C12 (stereo unspecified) : 4.6

// recorded inhibition for O=C(CN1C2CCC1CC(NC(=O)C1CC1)C2)NCc1ccccc1 (stereo unspecified) : -1.1

* * *

biological target: Collagenase 3 (Homo sapiens) (UniProt P45452); test: inhibition of MMP13 collagenase activity – biochemical, FRET peptide cleavage, primary screen (AID 570); settings: MMP-13 fTHP FRET cleavage, Mca fluorescence; at 4 µM; stronger effect = higher value;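 further: 0% = DMSO wells and 100% = wells with reference MMP-13 inhibitor after basal subtraction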
In all, about 65,000 compounds went through this assay and about 45 (0.07%) were called active. The entries come from a sample that favours actives as a whole.
Assign inhibition to each entry below.
The response must be a number in % with no trailing unit.

Bench note, Collagenase 3 (Homo sapiens) (UniProt P45452): entry c1nc(COc2nsnc2N2CCOCC2)cs1 , its inhibition = 2.5

Bench note, Collagenase 3 (Homo sapiens) (UniProt P45452): entry O=C(CN1CCN(c2ncc(C(F)(F)F)cc2Cl)CC1)Nc1ccc2c(c1)OCO2 , its inhibition = 2.7

Bench note, Collagenase 3 (Homo sapiens) (UniProt P45452): entry CC12CCC(C(=O)N3CCN(c4ncccn4)CC3)(c3nc4ccccc4nc31)C2(C)C (stereo not drawn) , its inhibition = 0.1

Bench note, Collagenase 3 (Homo sapiens) (UniProt P45452): entry O=C(CCC(=O)OCC(F)(F)C(F)F)NCc1ccccc1 , its inhibition = 1.8

Bench note, Collagenase 3 (Homo sapiens) (UniProt P45452): entry COc1ccccc1CNC(=O)C1CCCN(S(=O)(=O)c2cccc3cccnc23)C1 (stereo not drawn) , its inhibition = 2.1

Bench note, Collagenase 3 (Homo sapiens) (UniProt P45452): entry O=C(Nc1cccc(C(=O)N2CCCC2)c1)c1ccccc1 , its inhibition = -0.2

Bench note, Collagenase 3 (Homo sapiens) (UniProt P45452): entry CN(Cc1ccccc1)Cc1ccccc1F , its inhibition = 0.3

Bench note, Collagenase 3 (Homo sapiens) (UniProt P45452): entry Cc1cc(NC(=O)CN2CCCCC2C)nc2c1c(=O)oc1ccccc12 (stereo not drawn) , its inhibition = 0.1

Bench note, Collagenase 3 (Homo sapiens) (UniProt P45452): entry C=CCNC(=O)c1cc(-c2ccccc2O)on1 , its inhibition = 6

Bench note, Collagenase 3 (Homo sapiens) (UniProt P45452): entry CC(C)n1c(NCc2c[nH]c3ccccc23)nc2ccccc21 , its inhibition = -5.6

Bench note, Collagenase 3 (Homo sapiens) (UniProt P45452): entry CCOC(=O)N1CCC(Nc2c(NCCCN3CCN(c4ccc(OC)cc4)CC3)c(=O)c2=O)CC1 , its inhibition = 2.1

Bench note, Collagenase 3 (Homo sapiens) (UniProt P45452): entry O=C(CCCN1C(=O)CCC1=O)Nc1ccc(Cl)c(C(F)(F)F)c1 , its inhibition = 1.9

Bench note, Collagenase 3 (Homo sapiens) (UniProt P45452): entry CCOC(=O)C1(c2ccccc2)NC(c2ccc(N(C)C)cc2)C2C(=O)N(C)C(=O)C21 (stereo not drawn) , its inhibition = -4.8

Bench note, Collagenase 3 (Homo sapiens) (UniProt P45452): entry Cc1ccccc1C(OCC(O)CN1CCCCC1CCO)c1ccccc1 (stereo not drawn) , its inhibition = 1.3

Bench note, Collagenase 3 (Homo sapiens) (UniProt P45452): entry CCn1cc(C(=O)N2CC=C(c3ccccc3)CC2)c(=O)c2ccc(C)nc21 , its inhibition = 0.8

Bench note, Collagenase 3 (Homo sapiens) (UniProt P45452): entry C=CCC(NCCCO)c1cccc(OC)c1OC (stereo not drawn) , its inhibition = -1.4

Bench note, Collagenase 3 (Homo sapiens) (UniProt P45452): entry CCC/C(O)=C1\C(=O)CC(C)(C)CC1=Nc1ccccc1OC , its inhibition = -1.2

Bench note, Collagenase 3 (Homo sapiens) (UniProt P45452): entry CC1(C)Oc2ccc3ccc(=O)oc3c2/C(=C/NCCO)C1=O , its inhibition = 2.5

Bench note, Collagenase 3 (Homo sapiens) (UniProt P45452): entry NC(CSC12CC3CC(CC(C3)C1)C2)C(=O)O (stereo not drawn) , its inhibition = 2.6

Bench note, Collagenase 3 (Homo sapiens) (UniProt P45452): entry Cc1cccc(-n2c(Cc3cc(=O)[nH]c(=O)[nH]3)nnc2SC(C)C)c1 , its inhibition = 2.4

Bench note, Collagenase 3 (Homo sapiens) (UniProt P45452): entry COc1ccc(OC)c(NC(=O)CCN2CCC(C)CC2)c1 , its inhibition = 3.7

Bench note, Collagenase 3 (Homo sapiens) (UniProt P45452): entry C=CCn1c(COc2ccccc2C)nnc1SCC(=O)O , its inhibition = 5.1

Bench note, Collagenase 3 (Homo sapiens) (UniProt P45452): entry O=c1[nH]c(=O)n(Cc2ccco2)c2c1C(C(F)(F)F)(C(F)(F)F)N=C(c1ccco1)N2 , its inhibition = -3.7
